# procedure-details: in vitro
# conditions: human, uninfected MT-4 cells, CC50 (nM), same protocol as Test A, CellTiter-Glo
readout-kind: CC50 at 5 days

molecule="NC(=O)c1cc(-c2cccnc2[C@H](Cc2cc(F)cc(F)c2)NC(=O)CN2CC(=O)Nc3ccccc32)ccc1F [Example 269]" readout_kind="CC50 at 5 days" endpoint_result="> 53200 nM"
molecule="Cc1cc2[nH]cc(CC(=O)N[C@@H](Cc3cc(F)cc(F)c3)c3ncccc3-c3cccc(C(N)=O)c3)c2cc1O [Example 593]" readout_kind="CC50 at 5 days" endpoint_result="> 53000 nM"
molecule="NC(=O)c1cccc(-c2cccnc2[C@H](Cc2cc(F)cc(F)c2)NC(=O)Cc2c[nH]c3ccc(N)cc23)c1 [Example 560]" readout_kind="CC50 at 5 days" endpoint_result="> 53000 nM"
molecule="COC(=O)c1c2c(nn1CC(=O)N[C@@H](Cc1cc(F)cc(F)c1)c1ncccc1-c1ccc(F)c(C(N)=O)c1)COC2 [Example 453]" readout_kind="CC50 at 5 days" endpoint_result="> 53200 nM"
molecule="NC(=O)c1cc(-c2cccnc2[C@H](Cc2cc(F)cc(F)c2)NC(=O)C2CCCN2C(=O)c2ccccc2)ccc1F (some centres unmarked) [Example 126]" readout_kind="CC50 at 5 days" endpoint_result="> 53000 nM"
molecule="NC(=O)c1cccc(-c2cccnc2[C@H](Cc2cc(F)cc(F)c2)NC(=O)CC2C(=O)Nc3ccccc32)c1 (some centres unmarked) [Example 191]" readout_kind="CC50 at 5 days" endpoint_result="> 50900 nM"
molecule="NC(=O)c1cc(-c2cccnc2[C@H](Cc2cc(F)cc(F)c2)NC(=O)[C@@H]2CCCN2)ccc1F [Example 175]" readout_kind="CC50 at 5 days" endpoint_result="> 53000 nM"

Next molecule, please.
Quick check: CC50 at 5 days of NC(=O)c1cc(-c2cccnc2[C@H](Cc2cc(F)cc(F)c2)NC(=O)[C@H]2CCC(=O)N2)ccc1F [Example 125] ?
> 53000 nM
